protocol.summary: clinical
run.conditions: human, in vivo, po, Human blood level, 2 h; subject B; single oral dose 500 mg D,L-lysine salt (Table 5) or equivalent 300 mg sodium salt (Table 6); serum, as free acid
test.readout: concentration at 2 h (ng/mL)
Write the number in ng/mL without appending the unit.

Which measured concentration at 2 h value corresponds to CC(C)Cc1ccc(C(C)C(=O)[O-])cc1.[Na+] (stereo not shown) ? 10300

====

protocol.summary: clinical
run.conditions: human, in vivo, po, Human blood level, 0.5 h; subject E; single oral dose 500 mg D,L-lysine salt (Table 5) or equivalent 300 mg sodium salt (Table 6); serum, as free acid
test.readout: concentration at 0.5 h (ng/mL)
Write the number in ng/mL without appending the unit.

Which measured concentration at 0.5 h value corresponds to CC(C)Cc1ccc(C(C)C(=O)[O-])cc1.[Na+] (stereo not shown) ? 3300

# credit: patent US4279926A
